# System: ANN. BLUEGRASS
# procedureText: Test E
# Assay type: in vivo, PO annua
# studyConditions: POSTEMERGENCE 0500 GM/HA
attributeMeasured: plant response (%)
Report as a plain number; the unit % is understood.

Record C=C(c1ccc(F)cc1)C(O)(Cn1cncn1)c1ccccc1F (stereo not shown) . Reported plant response: 80

Record C=C(c1ccc(F)cc1)C(O)(Cn1cncn1)c1ccc(F)cc1F (stereo not shown) . Reported plant response: 60

Record C=C(c1ccccc1)C(O)(Cn1cncn1)c1ccc(Cl)cc1 (stereo not shown) . Reported plant response: 50

Record C=C(c1ccccc1)C(O)(Cn1cncn1)c1ccc(F)cc1F (stereo not shown) . Reported plant response: 70

###

# Tested on: Candida albicans ATCC 11651
# procedureText: In vivo systemic Candida infection in mice, primary assay
# Set-up: species or system Candida albicans; CF-1 female mice
# studyConditions: Candida albicans, ATCC11651, 336 h, 150 mg/kg per day, day 14; read-out: % Survival
Label fulfilled for high-side responders at 150 mg/kg (at or above 40%) and not fulfilled for low-side responders at 150 mg/kg (below it).

>  <compound>
C=C(c1ccc(F)cc1)C(O)(Cn1cncn1)c1ccccc1 (stereo not shown) [Example 656]

>  <target>
Candida albicans ATCC 11651

>  <group>
fulfilled

$$$$
>  <compound>
C=C(c1cccc(Cl)c1)C(O)(Cn1cncn1)c1ccc(Cl)cc1 (stereo not shown) [Example 41]

>  <target>
Candida albicans ATCC 11651

>  <group>
fulfilled

$$$$

Query string: Given the entry C=C(c1cccc2ccccc12)C(O)(Cn1cncn1)c1ccc(F)cc1 (stereo not shown) [Example 208] , answer whether its responders at 150 mg/kg meets or surpasses 40%.
Result string: not fulfilled

Query string: Given the entry C=C(c1ccccc1)C(O)(Cn1cncn1)c1ccccc1F (stereo not shown) [Example 594] , answer whether its responders at 150 mg/kg meets or surpasses 40%.
Result string: not fulfilled

Query string: Given the entry CC(=O)N1CCN(c2ccc(OCC3COC(Cn4ccnc4)(c4ccc(Cl)cc4Cl)O3)cc2)CC1 (stereo not shown) [Ketoconazole, reference compound] , answer whether its responders at 150 mg/kg meets or surpasses 40%.
Result string: fulfilled

Query string: Given the entry C=C(c1ccccc1)C(O)(Cn1cncn1)c1cc(Cl)cc(Cl)c1 (stereo not shown) [Example 603] , answer whether its responders at 150 mg/kg meets or surpasses 40%.
Result string: not fulfilled

###

# Tested on: LAMBSQUARTER
# procedureText: Test E
# Format: in vivo, Chenopodium album
# studyConditions: POSTEMERGENCE 0125 GM/HA
attributeMeasured: plant response (%)
Report as a plain number; the unit % is understood.

Solved entries:
>  <molecule>
C=C(c1ccc(F)cc1)C(O)(Cn1cncn1)c1ccc(F)cc1F (stereo not shown) [Example 4]

>  <attributeMeasured>
plant response

>  <assayValue>
20

$$$$
>  <molecule>
C=C(c1ccccc1)C(O)(Cn1cncn1)c1ccc(Cl)cc1 (stereo not shown) [Example 51]

>  <attributeMeasured>
plant response

>  <assayValue>
0

$$$$
>  <molecule>
C=C(c1ccccc1)C(O)(Cn1cncn1)c1ccc(F)cc1F (stereo not shown) [Example 52]

>  <attributeMeasured>
plant response

>  <assayValue>
0

$$$$

Switching to the query record.
Record C=C(c1ccc(F)cc1)C(O)(Cn1cncn1)c1ccccc1F (stereo not shown) [Example 644] . Reported plant response: 0

All values here come from patent US4965280A.
